Origin of measurements: patent US20250152746A1

- System: PCSK9 gene
- procedureText: PCSK9 gRNA/SpCas9 editing in primary cynomolgus hepatocytes (Tables 2, 22)
- Type: cell-based, cynomolgus monkey
- experimentalParameters: 100 ng/RNA/mL; SpCas9 mRNA MS002 1:1 by weight
In the oligonucleotide strings, read from the 5' end, every base follows the letter of its sugar. An asterisk marks phosphorothioate; unmarked linkages are phosphodiester. Other units and linkages are bracketed, terminal groups are in braces. A string of capitals states the bases alone. m = 2'-O-methyl; r = 2'-OH (RNA)
List of Cyno Primary Hepatocyte Editing % 100 values.

# example entries with known answers
molecule: GA164: PCSK9 gRNA; protospacer GTCCTCGTCCTCCTGCGCAC (SEQ ID NO: 158) (nucleic acid, sugars from the 5' end m3 r94 m3, linkages s3 o93 s3 (s phosphorothioate, o phosphodiester), T or U not given here) guide: GUCCUCGUCCUCCUGCGCACGUUUUAGAGCUAGAAAUAGCAAGUUAAAAUAAGGCUAGUCCGUUAUCAACUUGAAAAAGUGGCACCGAGUCGGUGCUUUU
experimentalResult: 2.75%
--
molecule: GA234: PCSK9 gRNA; protospacer CGCCTGCCAGCGCCTGGCGA (SEQ ID NO: 252) (nucleic acid) guide: mC*mG*mC*rCrUrGrCrCrArGrCrGrCrCrUrGrGrCrGrArGrUrUrUrUrArGrArGrCrUrArGrArArArUrArGrCrArArGrUrUrArArArArUrArArGrGrCrUrArGrUrCrCrGrUrUrArUrCrArArCrUrUrGrArArArArArGrUrGrGrCrArCrCrGrArGrUrCrGrGrUrGrCrU*mU*mU*mU
experimentalResult: 0.21%

## Input Quick check: Cyno Primary Hepatocyte Editing % 100 of GA163: PCSK9 gRNA; protospacer CGTCCTCGTCCTCCTGCGCA (SEQ ID NO: 157) (nucleic acid, sugars from the 5' end m3 r94 m3, linkages s3 o93 s3 (s phosphorothioate, o phosphodiester), T or U not given here) guide: CGUCCUCGUCCUCCUGCGCAGUUUUAGAGCUAGAAAUAGCAAGUUAAAAUAAGGCUAGUCCGUUAUCAACUUGAAAAAGUGGCACCGAGUCGGUGCUUUU ?
## Output 5.99%

## Input Quick check: Cyno Primary Hepatocyte Editing % 100 of GA204: PCSK9 gRNA; protospacer CACTCTGTATGCTGGTGTCT (SEQ ID NO: 198) (nucleic acid, sugars from the 5' end m3 r94 m3, linkages s3 o93 s3 (s phosphorothioate, o phosphodiester), T or U not given here) guide: CACUCUGUAUGCUGGUGUCUGUUUUAGAGCUAGAAAUAGCAAGUUAAAAUAAGGCUAGUCCGUUAUCAACUUGAAAAAGUGGCACCGAGUCGGUGCUUUU ?
## Output 0.91%

## Input Quick check: Cyno Primary Hepatocyte Editing % 100 of GA168: PCSK9 gRNA; protospacer CTTGGCGCAGCGGTGGAAGG (SEQ ID NO: 162) (nucleic acid, sugars from the 5' end m3 r94 m3, linkages s3 o93 s3 (s phosphorothioate, o phosphodiester), T or U not given here) guide: CUUGGCGCAGCGGUGGAAGGGUUUUAGAGCUAGAAAUAGCAAGUUAAAAUAAGGCUAGUCCGUUAUCAACUUGAAAAAGUGGCACCGAGUCGGUGCUUUU ?
## Output 4.75%

## Input Quick check: Cyno Primary Hepatocyte Editing % 100 of GA220: PCSK9 gRNA; protospacer GTGCTCAACTGCCAAGGGAA (SEQ ID NO: 214) (nucleic acid, sugars from the 5' end m3 r94 m3, linkages s3 o93 s3 (s phosphorothioate, o phosphodiester), T or U not given here) guide: GUGCUCAACUGCCAAGGGAAGUUUUAGAGCUAGAAAUAGCAAGUUAAAAUAAGGCUAGUCCGUUAUCAACUUGAAAAAGUGGCACCGAGUCGGUGCUUUU ?
## Output 3.13%

## Input Quick check: Cyno Primary Hepatocyte Editing % 100 of GA247: PCSK9 gRNA; protospacer CCTCGCCAGGCGCTGGCAGG (SEQ ID NO: 240) (nucleic acid, sugars from the 5' end m3 r94 m3, linkages s3 o93 s3 (s phosphorothioate, o phosphodiester), T or U not given here) guide: CCUCGCCAGGCGCUGGCAGGGUUUUAGAGCUAGAAAUAGCAAGUUAAAAUAAGGCUAGUCCGUUAUCAACUUGAAAAAGUGGCACCGAGUCGGUGCUUUU ?
## Output 0.71%

## Input Quick check: Cyno Primary Hepatocyte Editing % 100 of GA225: PCSK9 gRNA; protospacer GGCATCGTCCCGGAAGTTGC (SEQ ID NO: 219) (nucleic acid, sugars from the 5' end m3 r94 m3, linkages s3 o93 s3 (s phosphorothioate, o phosphodiester), T or U not given here) guide: GGCAUCGUCCCGGAAGUUGCGUUUUAGAGCUAGAAAUAGCAAGUUAAAAUAAGGCUAGUCCGUUAUCAACUUGAAAAAGUGGCACCGAGUCGGUGCUUUU ?
## Output 2.03%

## Input Quick check: Cyno Primary Hepatocyte Editing % 100 of GA197: PCSK9 gRNA; protospacer AGTGACCACCGGGAAATCGA (SEQ ID NO: 191) (nucleic acid, sugars from the 5' end m3 r94 m3, linkages s3 o93 s3 (s phosphorothioate, o phosphodiester), T or U not given here) guide: AGUGACCACCGGGAAAUCGAGUUUUAGAGCUAGAAAUAGCAAGUUAAAAUAAGGCUAGUCCGUUAUCAACUUGAAAAAGUGGCACCGAGUCGGUGCUUUU ?
## Output 0.9%

## Input Quick check: Cyno Primary Hepatocyte Editing % 100 of GA179: PCSK9 gRNA; protospacer GAGTGGCGACCTGCTGGAGC (SEQ ID NO: 173) (nucleic acid) guide: mG*mA*mG*rUrGrGrCrGrArCrCrUrGrCrUrGrGrArGrCrGrUrUrUrUrArGrArGrCrUrArGrArArArUrArGrCrArArGrUrUrArArArArUrArArGrGrCrUrArGrUrCrCrGrUrUrArUrCrArArCrUrUrGrArArArArArGrUrGrGrCrArCrCrGrArGrUrCrGrGrUrGrCrU*mU*mU*mU ?
## Output 1.06%

## Input Quick check: Cyno Primary Hepatocyte Editing % 100 of GA207: PCSK9 gRNA; protospacer GGAAATCGAGGGCAGGGTCA (SEQ ID NO: 201) (nucleic acid, sugars from the 5' end m3 r94 m3, linkages s3 o93 s3 (s phosphorothioate, o phosphodiester), T or U not given here) guide: GGAAAUCGAGGGCAGGGUCAGUUUUAGAGCUAGAAAUAGCAAGUUAAAAUAAGGCUAGUCCGUUAUCAACUUGAAAAAGUGGCACCGAGUCGGUGCUUUU ?
## Output 1.05%
